Assay: yeast display, Sf9 membrane polyspecificity reagent, FACS + sequencing; frameworks hold sequencing errors
measured_property: polyreactivity (PSR sort gate)

# example entries with known answers
{"columns": ["seq_text", "measured_property", "val"],
 "data": [
  ["QVQLVESGGCLVQAGGSLRLSCAASGFIFSEYAMGWYRQAPGKERELVVAIDVGGGSTYYADSVKGRFTISRDNAKNTVYLQMNSLKPEDTAVYYCAATQYGYWVPYQGFDYWGLGTQVTVSS", "polyreactivity (PSR sort gate)", "low polyreactivity"],
  ["QVQLVESGGGLVQAGGSLRLSCAASGSPFFPYAMGGYRQAPGKERELVAGISSDGGTSYADSVKGRFTISRDNAKNTVYLQMNSLKPEDTAVYYCAKETIGQDPVSGAWARHEYDYWGQGTQVTVSS", "polyreactivity (PSR sort gate)", "low polyreactivity"],
  ["QVQLVESGGGLVQAGGSLRLSCAASGFTFYTYVMGWYRQAPGKERELVAAISGRGGSTYYADSVKGRFTISRDNAKNTVYLQMNSLKPEDTAVYYCATVRSYSRVVGYDYWGQGTQVTVSS", "polyreactivity (PSR sort gate)", "high polyreactivity"],
  ["QVQLVESGGGLVQAGGSLRLSCAASGFIFRYYAMGWYRQAPGKERELVAAITSRGSSTYYADSVKGRFTISRDNAKNTVYLQMNSLKPEDTAVYYCAARLRGDYVRYDYWGQGTQVTVSS", "polyreactivity (PSR sort gate)", "high polyreactivity"]
]}

The record that follows has no polyreactivity (PSR sort gate) shown yet.
Given item QVQLVESGGGLVQAGGSLRLSCADSGTTVIFNAMGWYRQAPGKERELVGAISWRLGRTYYAYSVKGRFTISRDNAKNTVYLQMNSLTPEDTAVYYCARDYSRHKGDYWGQGTQVTVSS , the value recorded as its polyreactivity (PSR sort gate) is low polyreactivity
